Field: Growth Rate. Provide a value for each of the compounds that follow.
Tested on: Fibroblast
Procedure Details: Incucyte cell viability with human fibroblast; further: filed as whole numbers so only -1 and 0 and 1 occur
Format: toxicity, cell-based
Condition Info: 6 h, 10 µM, compound concentration 10 uM, replicate number 1, timepoint 6 hours
Answer with a bare number; do not write a unit.

Ask: Output Growth Rate of CN(C)C(=O)Cn1cc(-c2nc(C3(c4ccc(-c5cnc(N)nc5)cc4)CC3)no2)cn1
Result: 0

Ask: Give me measured Growth Rate, please, for this compound: CC(C)CC(=O)N1CCc2nc(-c3ccc(Br)cc3)nc(N(C)Cc3ccccc3)c2C1
Result: 1

Ask: Could you please provide reported Growth Rate for C=CCN1C[C@H](C)N([C@H](c2ccc(C(=O)N(CC)CC)cc2)c2cccc(O)c2)C[C@H]1C ? Thanks!
Result: 0

Ask: Please indicate Growth Rate recorded for N#Cc1ccccc1OCC(O)CNCCNC(=O)Nc1ccccc1 (centres undefined)
Result: 0

Ask: Fill in reported Growth Rate for this entry: CC(C)(C)c1cnc(CSc2cnc(NC(=O)C3CCNCC3)s2)o1
Result: 0

Ask: Determine its reported Growth Rate: Cc1c(Oc2ccc(F)cc2)c(OC(C)C)nn1-c1ccc(C2CC2)cn1
Result: 0

Ask: Find the measured Growth Rate of O=C(Nc1cccc2c(=O)cc(-c3nnn[nH]3)oc12)c1ccc(OCCCCc2ccccc2)cc1 and report it.
Result: 0

Ask: Please list Growth Rate recorded for the compound Cc1nc(C#Cc2ccnc(Cl)c2)c(C)n1-c1ccc(OC(F)(F)F)cc1
Result: 1

Ask: Complete the entry with Growth Rate for COc1ccc(/C=C/CCCCOc2ccc(C(=O)c3cccc(C(=O)O)c3)cc2CCC(=O)O)cc1
Result: 1

Recorded values, source ChEMBL document CHEMBL4689842.
